# SYSTEM: Galectin-1 (Homo sapiens)
# TEST_METHOD_NOTES: Fluorescence anisotropy assay, affinity for galectin-1
# CONDITION_DESCRIPTION: compound as inhibitor of the interaction between galectin and a fluorescein tagged saccharide probe
Readings of Kd for the listed compounds
Your answer is read as nM, so omit the unit and give the number.

Worked cases, answers included:
COMPOUND	MEASURE_UNIT	Kd
CCN(C(=O)c1ncc(Br)cc1S[C@H]1OC(CO)[C@H](O)C(n2cc(-n3ccc(Cl)n3)nn2)C1OC)C(C)(C)C (some centres unmarked)	nM	87
COC1C(n2cc(-n3cc(Cl)c(Cl)n3)nn2)[C@@H](O)C(CO)O[C@@H]1Sc1cc(Br)cnc1C#N (some centres unmarked)	nM	290
CCCCNC(=O)c1ncc(Br)cc1S[C@H]1OC(CO)[C@H](O)[C@H](n2cc(-n3ccc(Cl)n3)nn2)C1OC (some centres unmarked)	nM	110
OCC1O[C@H](Sc2cncc(Cl)c2)C(O)C(n2cc(-n3ccc(Cl)n3)nn2)[C@H]1O (some centres unmarked)	nM	500
CCN(CC1CC1)C(=O)c1ncc(Br)cc1S[C@H]1OC(CO)[C@H](O)C(n2cc(-n3ccc(Cl)n3)nn2)C1OC (some centres unmarked)	nM	100
COC1[C@@H](Sc2cc(Br)cnc2C(=O)NCCF)OC(CO)[C@H](O)[C@@H]1n1cc(-n2ccc(Cl)n2)nn1 (some centres unmarked)	nM	80
COC1C(n2cc(-n3nc(C(F)(F)F)cc3Cl)nn2)[C@@H](O)C(CO)O[C@@H]1Sc1cc(Br)cnc1C#N (some centres unmarked)	nM	2000
CCN(CC1CCC1)C(=O)c1ncc(Br)cc1S[C@H]1OC(CO)[C@H](O)C(n2cc(-n3ccc(Cl)n3)nn2)C1OC (some centres unmarked)	nM	140

We next turn to a different compound, shown below.
Input line: For COC1C(n2cc(-n3ccc(Cl)n3)nn2)[C@@H](O)C(CO)O[C@@H]1Sc1cc(Br)cnc1C(=O)N(C)C (some centres unmarked) , write its Kd.
Output line: 54

###

# SYSTEM: UniProt:P09382
# TEST_METHOD_NOTES: Fluorescence anisotropy assay, affinity for galectin-1
# CONDITION_DESCRIPTION: compound as inhibitor of the interaction between galectin and a fluorescein tagged saccharide probe
ASSAY_METRIC: Kd (nM)
Respond numerically; units are nM and should not be typed.

Worked examples, 6 molecules total:
MOLECULE	ASSAY_METRIC	MEASURE_UNIT	RECORDED_VALUE
COC1C(n2cc(-n3nccc3C)nn2)[C@@H](O)C(CO)O[C@@H]1Sc1cc(Br)cnc1C#N (stereo partly shown) [Example 15]	Kd	nM	890
CCN(C(=O)c1ncc(Br)cc1S[C@H]1OC(CO)[C@H](O)C(n2cc(-n3ccc(Cl)n3)nn2)C1OC)C(C)C (stereo partly shown) [Example 19]	Kd	nM	110
COC1[C@@H](Sc2cc(Br)cnc2C(=O)NC23CC(C2)C3)OC(CO)[C@H](O)[C@@H]1n1cc(-n2ccc(Cl)n2)nn1 (stereo partly shown) [Example 39]	Kd	nM	64
COC1C(n2cc(-n3ccc(Cl)n3)nn2)[C@@H](O)C(CO)O[C@@H]1Sc1cc(Br)cnc1C(=O)N(CC1CC1)C(C)C (stereo partly shown) [Example 31]	Kd	nM	72
COC1C(n2cc(-n3ccc(Cl)n3)nn2)[C@@H](O)C(CO)O[C@@H]1Sc1cc(Br)cnc1C(=O)N(CC1CCC1)CC1CCC1 (stereo partly shown) [Example 27]	Kd	nM	380
COC1C(n2cc(-n3ccc(C)n3)nn2)[C@@H](O)C(CO)O[C@@H]1Sc1cc(Br)cnc1C#N (stereo partly shown) [Example 14]	Kd	nM	180

Consider now this further molecule.
Input line: Print UniProt:P09382 Kd for COC1[C@@H](Sc2cc(Br)cnc2C(=O)NCC(C)C)OC(CO)[C@H](O)[C@@H]1n1cc(-n2ccc(Cl)n2)nn1 (stereo partly shown) [Example 37] .
Output line: 92

###

# SYSTEM: Galectin-3 (Homo sapiens)
# Sequence (P17931 whole entry): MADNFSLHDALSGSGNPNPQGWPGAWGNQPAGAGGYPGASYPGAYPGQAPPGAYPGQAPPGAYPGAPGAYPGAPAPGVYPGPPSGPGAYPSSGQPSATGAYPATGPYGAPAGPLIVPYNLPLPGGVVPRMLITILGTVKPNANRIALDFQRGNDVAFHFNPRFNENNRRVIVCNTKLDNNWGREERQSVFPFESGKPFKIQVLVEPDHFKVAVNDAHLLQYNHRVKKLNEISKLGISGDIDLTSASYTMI
# TEST_METHOD_NOTES: Fluorescence anisotropy assay, affinity for galectin-3
# CONDITION_DESCRIPTION: compound as inhibitor of the interaction between galectin and a fluorescein tagged saccharide probe
pKd overview
As a rule, pKd stands for the negative log10 of the concentration, concentration in M.

Consider the reported pKd for these compounds:
COMPOUND	ASSAY_METRIC	RECORDED_VALUE
COC1C(n2cc(-n3ccc(Cl)n3)nn2)[C@@H](O)C(CO)O[C@@H]1Sc1cnc(C(F)(F)F)c(Cl)c1 (stereo partly shown)	pKd	6.27
CCN(C(=O)c1ncc(Br)cc1S[C@H]1OC(CO)[C@H](O)C(n2cc(-n3ccc(Cl)n3)nn2)C1OC)C(C)C (stereo partly shown)	pKd	7.04
CCN(CC(F)(F)F)C(=O)c1ncc(Br)cc1S[C@H]1OC(CO)[C@H](O)C(n2cc(-n3ccc(Cl)n3)nn2)C1OC (stereo partly shown)	pKd	7.22

Lab note: next compound to report on.
Input line: Could you please provide reported pKd for CCN(CC1CC1)C(=O)c1ncc(Br)cc1S[C@H]1OC(CO)[C@H](O)C(n2cc(-n3ccc(Cl)n3)nn2)C1OC (stereo partly shown) ? Thanks!
Output line: 7.00

###

# SYSTEM: UniProt P17931
# TEST_METHOD_NOTES: Fluorescence anisotropy assay, affinity for galectin-3
# CONDITION_DESCRIPTION: compound as inhibitor of the interaction between galectin and a fluorescein tagged saccharide probe
// reported pKd for each item listed
On this scale, pKd is minus log10 of a concentration expressed in M (mol/L).

COMPOUND	ASSAY_METRIC	RECORDED_VALUE
COC1C(n2cc(-n3nc(C(F)(F)F)cc3Cl)nn2)[C@@H](O)C(CO)O[C@@H]1Sc1cc(Br)cnc1C#N (some centres unmarked)	pKd	6.25
COC1C(n2cc(-n3ccc(Cl)n3)nn2)[C@@H](O)C(CO)O[C@@H]1Sc1cc(Br)cnc1C(=O)N(CC1CCC1)CC1CCC1 (some centres unmarked)	pKd	6.59
COC1[C@@H](Sc2cc(Br)cnc2C(=O)NCCF)OC(CO)[C@H](O)[C@@H]1n1cc(-n2ccc(Cl)n2)nn1 (some centres unmarked)	pKd	6.74
COC1C(n2cc(-n3nccc3C)nn2)[C@@H](O)C(CO)O[C@@H]1Sc1cc(Br)cnc1C#N (some centres unmarked)	pKd	5.37
CCNC(=O)c1ncc(Br)cc1S[C@H]1OC(CO)[C@H](O)[C@H](n2cc(-n3ccc(Cl)n3)nn2)C1OC (some centres unmarked)	pKd	6.85

Input line: Complete the entry with pKd for COC1C(n2cc(-n3cc(F)c(Cl)n3)nn2)[C@@H](O)C(CO)O[C@@H]1Sc1cc(Br)cnc1C#N (some centres unmarked)
Output line: 6.85

Input line: Indicate its recorded pKd; the compound in question is COC1[C@@H](Sc2cc(Br)cnc2C(=O)NC2CCC2)OC(CO)[C@H](O)[C@@H]1n1cc(-n2ccc(Cl)n2)nn1 (some centres unmarked)
Output line: 6.80

Input line: Return reported pKd. Input compound: COC1C(n2cc(-n3ccc(Cl)n3)nn2)[C@@H](O)C(CO)O[C@@H]1Sc1cc(Br)cnc1C(=O)N(C)C (some centres unmarked)
Output line: 7.14

Input line: Indicate its recorded pKd; the compound in question is COC1C(n2cc(-n3ccc(Cl)n3)nn2)[C@@H](O)C(CO)O[C@@H]1Sc1cc(Br)cnc1C(=O)N(CC1CC1)C(C)C (some centres unmarked)
Output line: 7.22

Input line: Write down pKd measured for item COC1C(n2cc(-n3nc(Cl)cc3C)nn2)[C@@H](O)C(CO)O[C@@H]1Sc1cc(Br)cnc1C#N (some centres unmarked)
Output line: 6.40

Input line: Name the recorded pKd of the compound listed here: COC1[C@@H](Sc2cc(Br)cnc2C(=O)NCC(C)C)OC(CO)[C@H](O)[C@@H]1n1cc(-n2ccc(Cl)n2)nn1 (some centres unmarked)
Output line: 6.96

###

Property: pKd; scope: individual compounds
# SYSTEM: Galectin-1 (Homo sapiens, UniProt P09382)
# Sequence (P09382 whole entry): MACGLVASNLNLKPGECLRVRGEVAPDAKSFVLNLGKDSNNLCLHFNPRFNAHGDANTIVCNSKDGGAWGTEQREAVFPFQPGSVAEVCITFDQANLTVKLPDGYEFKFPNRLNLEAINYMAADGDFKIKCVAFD
# TEST_METHOD_NOTES: Fluorescence anisotropy assay, affinity for galectin-1
# CONDITION_DESCRIPTION: compound as inhibitor of the interaction between galectin and a fluorescein tagged saccharide probe
# Procedure: The affinity of Example 1-43 for galectins were determined by a fluorescence anisotropy assay where the compound was used as an inhibitor of the interaction between galectin and a fluorescein tagged saccharide probe as described Sörme, P., Kahl-Knutsson, B., Huflejt, M., Nilsson, U. J., and Leffler H. (2004) Fluorescence polarization as an analytical tool to evaluate galectin-ligand interactions. […]
Value format note: pKd is -log10 of concentration (mol/L); just state the number.

COMPOUND	RECORDED_VALUE
COC1C(n2cc(-n3nc(Cl)cc3C)nn2)[C@@H](O)C(CO)O[C@@H]1Sc1cc(Br)cnc1C#N (some centres unmarked) [Example 16]	6.46
COC1C(n2cc(-n3cc(C)c(Cl)n3)nn2)[C@@H](O)C(CO)O[C@@H]1Sc1cc(Br)cnc1C#N (some centres unmarked) [Example 18]	6.46
COC1C(n2cc(-n3cc(F)c(Cl)n3)nn2)[C@@H](O)C(CO)O[C@@H]1Sc1cc(Br)cnc1C#N (some centres unmarked) [Example 43]	6.57
CCNC(=O)c1ncc(Br)cc1S[C@H]1OC(CO)[C@H](O)[C@H](n2cc(-n3ccc(Cl)n3)nn2)C1OC (some centres unmarked) [Example 35]	7.20

Input line: Give reported pKd value for COC1C(n2cc(-n3cc(Cl)cn3)nn2)[C@@H](O)C(CO)O[C@@H]1Sc1cc(Br)cnc1C#N (some centres unmarked) [Example 11]
Output line: 6.28

Input line: Please report pKd for the following compound: COC1C(n2cc(-n3ccc(Cl)n3)nn2)[C@@H](O)C(CO)O[C@@H]1Sc1cc(Br)cnc1C(=O)N(C)CC(C)(C)F (some centres unmarked) [Example 22]
Output line: 7.01

Input line: Consider the compound COC1C(n2cc(-n3ccc(F)n3)nn2)[C@@H](O)C(CO)O[C@@H]1Sc1cc(Br)cnc1C#N (some centres unmarked) [Example 12] and give its recorded pKd.
Output line: 6.74

Data credit: patent US20240287122A1
